- assay-details: Hematology assays in cynomolgus monkeys (Example 46)
- Type: in vivo
- condition-notes: Day-14
- Method: Groups, each consisting of two male and two female monkeys, were injected subcutaneously with 25 mg/kg of ISIS 416850, ISIS 449709, ISIS 445522, ISIS 449710, ISIS 449707, ISIS 449711, ISIS 449708, 416858, and ISIS 445531. […] Body weights were taken 14 days and 7 days before the start of treatment and were then measured weekly throughout the treatment period. […]
Strand notation (5' to 3'): a small letter for the sugar, then the base; units joined by * are phosphorothioate-linked, units joined directly phosphodiester-linked; [ ] holds rarer units or linkages, { } end groups; capitals alone tell only the bases. e = 2'-O-(2-methoxyethyl) (MOE); [5mC] = 5-methylcytosine; d = 2'-deoxy (DNA)
Documented MCH across a set of substances

substance	MCH (pg)
ISIS 449708: 3-8-3, 4-8-4, 2-10-2, 3-10-3 or 4-10-4 MOE microwalk gapmer (Table 46) (antisense eA*e[5mC]*eA*dG*dT*dT*dT*d[5mC]*dT*dG*dG*e[5mC]*eA*eG)	22.9
ISIS 416858: MOE gapmer, nucleobases 1275 to 1318 of SEQ ID NO: 1 (Table 8) (antisense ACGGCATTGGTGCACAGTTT; MOE gapmer, wing and gap sizes not given here)	23.2

====

BUN levels values, listed per item
- assay-details: Kidney function, BUN, urine protein to creatinine ratio in cynomolgus monkeys (Example 46)
- Assay type: in vivo
- condition-notes: Day 55
- Description: Groups, each consisting of two male and two female monkeys, were injected subcutaneously with 25 mg/kg of ISIS 416850, ISIS 449709, ISIS 445522, ISIS 449710, ISIS 449707, ISIS 449711, ISIS 449708, 416858, and ISIS 445531. […] Body weights were taken 14 days and 7 days before the start of treatment and were then measured weekly throughout the treatment period. […]
Strand notation (5' to 3'): a small letter for the sugar, then the base; units joined by * are phosphorothioate-linked, units joined directly phosphodiester-linked; [ ] holds rarer units or linkages, { } end groups; capitals alone tell only the bases. e = 2'-O-(2-methoxyethyl) (MOE); [5mC] = 5-methylcytosine; d = 2'-deoxy (DNA)
observable: BUN levels (mg/dL)

substance	test-result
ISIS 416850: MOE gapmer, nucleobases 1275 to 1318 of SEQ ID NO: 1 (Table 8) (antisense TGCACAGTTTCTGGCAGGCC; MOE gapmer, wing and gap sizes not given here)	26
ISIS 449707: 3-8-3, 4-8-4, 2-10-2, 3-10-3 or 4-10-4 MOE microwalk gapmer (Table 46) (antisense e[5mC]*eA*e[5mC]*eA*dG*dT*dT*dT*d[5mC]*dT*dG*dG*e[5mC]*eA*eG*eG)	20
ISIS 449709: 3-8-3, 4-8-4, 2-10-2, 3-10-3 or 4-10-4 MOE microwalk gapmer (Table 46) (antisense eG*e[5mC]*eA*e[5mC]*dA*dG*dT*dT*dT*d[5mC]*dT*dG*dG*d[5mC]*eA*eG*eG*e[5mC])	28
ISIS 445522: 5-8-5 or 6-8-6 MOE microwalk gapmer (Table 44) (antisense eG*e[5mC]*eA*e[5mC]*eA*dG*dT*dT*dT*d[5mC]*dT*dG*dG*e[5mC]*eA*eG*eG*e[5mC])	22

====

- Tested on: IL-1β, IL-6, IFN-γ, TNF-α, IL-8, MIP-1α, MCP-1, MIP-1β, RANTES
- assay-details: Cytokine and chemokine assays in cynomolgus monkeys (Example 46)
- Assay type: in vivo
- condition-notes: day-14 (before start of treatment)
Strand notation (5' to 3'): a small letter for the sugar, then the base; units joined by * are phosphorothioate-linked, units joined directly phosphodiester-linked; [ ] holds rarer units or linkages, { } end groups; capitals alone tell only the bases. e = 2'-O-(2-methoxyethyl) (MOE); [5mC] = 5-methylcytosine; d = 2'-deoxy (DNA)
Entry flag: satisfied if RANTES level reaches 7000 pg/mL; not satisfied if it does not.

substance	subject-of-test	class-label
ISIS 449708: 3-8-3, 4-8-4, 2-10-2, 3-10-3 or 4-10-4 MOE microwalk gapmer (Table 46) (antisense eA*e[5mC]*eA*dG*dT*dT*dT*d[5mC]*dT*dG*dG*e[5mC]*eA*eG)	IL-1β, IL-6, IFN-γ, TNF-α, IL-8, MIP-1α, MCP-1, MIP-1β, RANTES	satisfied
ISIS 449707: 3-8-3, 4-8-4, 2-10-2, 3-10-3 or 4-10-4 MOE microwalk gapmer (Table 46) (antisense e[5mC]*eA*e[5mC]*eA*dG*dT*dT*dT*d[5mC]*dT*dG*dG*e[5mC]*eA*eG*eG)	IL-1β, IL-6, IFN-γ, TNF-α, IL-8, MIP-1α, MCP-1, MIP-1β, RANTES	not satisfied
ISIS 416850: MOE gapmer, nucleobases 1275 to 1318 of SEQ ID NO: 1 (Table 8) (antisense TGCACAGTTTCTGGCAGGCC; MOE gapmer, wing and gap sizes not given here)	IL-1β, IL-6, IFN-γ, TNF-α, IL-8, MIP-1α, MCP-1, MIP-1β, RANTES	not satisfied
ISIS 449711: 3-8-3, 4-8-4, 2-10-2, 3-10-3 or 4-10-4 MOE microwalk gapmer (Table 46) (antisense eA*e[5mC]*dA*dG*dT*dT*dT*d[5mC]*dT*dG*dG*d[5mC]*eA*eG)	IL-1β, IL-6, IFN-γ, TNF-α, IL-8, MIP-1α, MCP-1, MIP-1β, RANTES	not satisfied
ISIS 449710: 3-8-3, 4-8-4, 2-10-2, 3-10-3 or 4-10-4 MOE microwalk gapmer (Table 46) (antisense e[5mC]*eA*e[5mC]*dA*dG*dT*dT*dT*d[5mC]*dT*dG*dG*d[5mC]*eA*eG*eG)	IL-1β, IL-6, IFN-γ, TNF-α, IL-8, MIP-1α, MCP-1, MIP-1β, RANTES	not satisfied
ISIS 416858: MOE gapmer, nucleobases 1275 to 1318 of SEQ ID NO: 1 (Table 8) (antisense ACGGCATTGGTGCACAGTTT; MOE gapmer, wing and gap sizes not given here)	IL-1β, IL-6, IFN-γ, TNF-α, IL-8, MIP-1α, MCP-1, MIP-1β, RANTES	not satisfied
ISIS 445531: 5-8-5 or 6-8-6 MOE microwalk gapmer (Table 44) (antisense eG*eG*e[5mC]*eA*eT*dT*dG*dG*dT*dG*d[5mC]*dA*d[5mC]*eA*eG*eT*eT*eT)	IL-1β, IL-6, IFN-γ, TNF-α, IL-8, MIP-1α, MCP-1, MIP-1β, RANTES	satisfied
ISIS 445522: 5-8-5 or 6-8-6 MOE microwalk gapmer (Table 44) (antisense eG*e[5mC]*eA*e[5mC]*eA*dG*dT*dT*dT*d[5mC]*dT*dG*dG*e[5mC]*eA*eG*eG*e[5mC])	IL-1β, IL-6, IFN-γ, TNF-α, IL-8, MIP-1α, MCP-1, MIP-1β, RANTES	not satisfied
ISIS 449709: 3-8-3, 4-8-4, 2-10-2, 3-10-3 or 4-10-4 MOE microwalk gapmer (Table 46) (antisense eG*e[5mC]*eA*e[5mC]*dA*dG*dT*dT*dT*d[5mC]*dT*dG*dG*d[5mC]*eA*eG*eG*e[5mC])	IL-1β, IL-6, IFN-γ, TNF-α, IL-8, MIP-1α, MCP-1, MIP-1β, RANTES	not satisfied

====

- Tested on: human Factor 11 mRNA
- assay-details: Antisense inhibition of human Factor 11 in HepG2 cells by microwalk gapmers, lipofectin, 75 nM (Example 3)
- Type: cell-based
- condition-notes: HepG2 cells, lipofectin, gapmers targeted to nucleobases 1018 to 1042 of SEQ ID NO: 1
Strand notation (5' to 3'): a small letter for the sugar, then the base; units joined by * are phosphorothioate-linked, units joined directly phosphodiester-linked; [ ] holds rarer units or linkages, { } end groups; capitals alone tell only the bases. e = 2'-O-(2-methoxyethyl) (MOE); [5mC] = 5-methylcytosine; d = 2'-deoxy (DNA)
Threshold check on % inhibition: at or above 90% gives yes (1), strictly below gives no (0).

substance	class-label
413474 (antisense eA*eG*e[5mC]*eA*eA*d[5mC]*d[5mC]*dG*dG*dG*dA*dT*dG*dA*dT*eG*eA*eG*eT*eG) [compound 413474]	yes (1)
416983 (antisense eA*eA*d[5mC]*d[5mC]*dG*dG*dG*dA*dT*dG*dA*dT*dG*dA*dG*eT*eG*e[5mC]*eA*eG) [compound 416983]	no (0)
416908 (antisense eG*e[5mC]*eA*dA*d[5mC]*d[5mC]*dG*dG*dG*dA*dT*dG*dA*dT*dG*dA*dG*eT*eG*e[5mC]) [compound 416908]	yes (1)
416838 (antisense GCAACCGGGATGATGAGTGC; 5-10-5 gapmer, further chemistry not given here) [compound 416838]	yes (1)
416905 (antisense eA*e[5mC]*e[5mC]*dG*dG*dG*dA*dT*dG*dA*dT*dG*dA*dG*dT*dG*d[5mC]*eA*eG*eA) [compound 416905]	no (0)
416981 (antisense e[5mC]*e[5mC]*dG*dG*dG*dA*dT*dG*dA*dT*dG*dA*dG*dT*dG*e[5mC]*eA*eG*eA*eT) [compound 416981]	no (0)
